Target: hemagglutinin (HA) of influenza A/Solomon Islands/3/06 H1N1 (Influenza A virus A/Solomon …)
Experiment: ELISA, inactivated whole virions coated; transfection supernatant set 5

binder | measurement unit | OD450
TCN-558 (5248_H10b) (antibody, V domains shown) VH: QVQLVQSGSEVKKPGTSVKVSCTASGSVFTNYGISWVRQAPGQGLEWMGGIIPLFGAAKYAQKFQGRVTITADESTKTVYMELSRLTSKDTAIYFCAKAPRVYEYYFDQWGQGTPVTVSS VL: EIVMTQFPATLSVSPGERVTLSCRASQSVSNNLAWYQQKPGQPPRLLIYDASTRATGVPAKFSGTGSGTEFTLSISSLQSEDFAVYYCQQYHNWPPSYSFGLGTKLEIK | OD450 | 3.52
TCN-551 (5243_D01) (antibody, V domains shown) VH: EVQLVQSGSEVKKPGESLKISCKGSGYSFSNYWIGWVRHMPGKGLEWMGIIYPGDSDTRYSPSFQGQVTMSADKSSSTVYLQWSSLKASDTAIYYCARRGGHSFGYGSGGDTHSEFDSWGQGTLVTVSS VL: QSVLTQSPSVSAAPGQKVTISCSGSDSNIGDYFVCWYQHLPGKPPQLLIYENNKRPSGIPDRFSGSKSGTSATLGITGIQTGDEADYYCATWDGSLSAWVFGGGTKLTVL | OD450 | 3.65
TCN-544 (5082_A19) (antibody, V domains shown) VH: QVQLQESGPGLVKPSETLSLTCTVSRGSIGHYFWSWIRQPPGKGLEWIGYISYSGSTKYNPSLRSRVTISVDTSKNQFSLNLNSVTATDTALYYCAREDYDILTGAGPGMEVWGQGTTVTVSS VL: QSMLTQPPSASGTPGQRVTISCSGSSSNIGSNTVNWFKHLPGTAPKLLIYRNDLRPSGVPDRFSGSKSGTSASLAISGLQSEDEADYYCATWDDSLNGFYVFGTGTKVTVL | OD450 | 0.07
TCN-543 (5081_G23) (antibody, V domains shown) VH: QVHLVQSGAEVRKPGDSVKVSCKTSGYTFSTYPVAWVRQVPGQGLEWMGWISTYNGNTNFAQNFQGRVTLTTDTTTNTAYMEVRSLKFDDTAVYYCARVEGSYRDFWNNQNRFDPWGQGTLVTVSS VL: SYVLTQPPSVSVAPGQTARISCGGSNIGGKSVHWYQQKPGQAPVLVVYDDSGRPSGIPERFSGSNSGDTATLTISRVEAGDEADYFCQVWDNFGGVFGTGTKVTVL | OD450 | 3.63
TCN-545 (5082_I15) (antibody, V domains shown) VH: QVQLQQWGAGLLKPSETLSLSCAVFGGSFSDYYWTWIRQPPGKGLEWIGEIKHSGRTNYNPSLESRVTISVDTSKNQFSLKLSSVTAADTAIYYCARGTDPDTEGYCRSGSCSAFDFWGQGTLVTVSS VL: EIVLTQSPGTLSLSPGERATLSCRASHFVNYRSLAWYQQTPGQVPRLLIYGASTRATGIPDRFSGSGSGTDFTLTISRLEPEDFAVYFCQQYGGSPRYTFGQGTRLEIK | OD450 | 1.36
